Origin of the recorded values: PubChem BioAssay (EPA / NIEHS)

molecular target: rat Serotonin, 5-Hydroxytryptamine Receptor 1 (5HT1), Non-Selective Binding, Htr1a (gene 24473); assay: NVS_GPCR_r5HT1_NonSelective: NovaScreen (NVS) G Protein-Coupled Receptor Assay for rat Serotonin, 5-Hydroxytryptamine Receptor 1 (5HT1), Non-Selective Binding (AID 2283286)
Records with an inconclusive call do not appear. The source made the active and inactive calls. Rule for the calls: active = hit-call score of the fitted dose curve at least 0.9, where 1 is the maximum; inconclusive = response in the unintended direction; inactive = score below 0.9.
Response enum: true (active), false (inactive)

Tell me the assay call for O=c1[nH]sc2ccccc12 please.
true

Please share the test call associated with COc1cccc([C@H](O)C2CCN(CCc3ccc(F)cc3)CC2)c1OC .
true

Which result was noted for this compound in the test: NCc1cccc(C2CCN(C(=O)c3ccc(C#Cc4ccccc4F)o3)CC2)c1
true

Could you please tell me the result logged for CC[C@@H]1C[C@H](N(Cc2cc(C(F)(F)F)cc(C(F)(F)F)c2)C(C)=O)c2cc(C(F)(F)F)ccc2N1C(=O)OC(C)C in this assay?
false

So what was the verdict on CN(C)C(=O)C1(N2CCCCC2)CCN(CC[C@@]2(c3ccc(Cl)c(Cl)c3)CN(C(=O)c3ccccc3)CCO2)CC1 in this test?
false

Hi, do you know how CC1=CC(=O)/C(=C(/C)O)C(=O)O1 came out in this test?
false
